Target: P300 (Homo sapiens, UniProt Q09472)
Sequence (Q09472 whole entry): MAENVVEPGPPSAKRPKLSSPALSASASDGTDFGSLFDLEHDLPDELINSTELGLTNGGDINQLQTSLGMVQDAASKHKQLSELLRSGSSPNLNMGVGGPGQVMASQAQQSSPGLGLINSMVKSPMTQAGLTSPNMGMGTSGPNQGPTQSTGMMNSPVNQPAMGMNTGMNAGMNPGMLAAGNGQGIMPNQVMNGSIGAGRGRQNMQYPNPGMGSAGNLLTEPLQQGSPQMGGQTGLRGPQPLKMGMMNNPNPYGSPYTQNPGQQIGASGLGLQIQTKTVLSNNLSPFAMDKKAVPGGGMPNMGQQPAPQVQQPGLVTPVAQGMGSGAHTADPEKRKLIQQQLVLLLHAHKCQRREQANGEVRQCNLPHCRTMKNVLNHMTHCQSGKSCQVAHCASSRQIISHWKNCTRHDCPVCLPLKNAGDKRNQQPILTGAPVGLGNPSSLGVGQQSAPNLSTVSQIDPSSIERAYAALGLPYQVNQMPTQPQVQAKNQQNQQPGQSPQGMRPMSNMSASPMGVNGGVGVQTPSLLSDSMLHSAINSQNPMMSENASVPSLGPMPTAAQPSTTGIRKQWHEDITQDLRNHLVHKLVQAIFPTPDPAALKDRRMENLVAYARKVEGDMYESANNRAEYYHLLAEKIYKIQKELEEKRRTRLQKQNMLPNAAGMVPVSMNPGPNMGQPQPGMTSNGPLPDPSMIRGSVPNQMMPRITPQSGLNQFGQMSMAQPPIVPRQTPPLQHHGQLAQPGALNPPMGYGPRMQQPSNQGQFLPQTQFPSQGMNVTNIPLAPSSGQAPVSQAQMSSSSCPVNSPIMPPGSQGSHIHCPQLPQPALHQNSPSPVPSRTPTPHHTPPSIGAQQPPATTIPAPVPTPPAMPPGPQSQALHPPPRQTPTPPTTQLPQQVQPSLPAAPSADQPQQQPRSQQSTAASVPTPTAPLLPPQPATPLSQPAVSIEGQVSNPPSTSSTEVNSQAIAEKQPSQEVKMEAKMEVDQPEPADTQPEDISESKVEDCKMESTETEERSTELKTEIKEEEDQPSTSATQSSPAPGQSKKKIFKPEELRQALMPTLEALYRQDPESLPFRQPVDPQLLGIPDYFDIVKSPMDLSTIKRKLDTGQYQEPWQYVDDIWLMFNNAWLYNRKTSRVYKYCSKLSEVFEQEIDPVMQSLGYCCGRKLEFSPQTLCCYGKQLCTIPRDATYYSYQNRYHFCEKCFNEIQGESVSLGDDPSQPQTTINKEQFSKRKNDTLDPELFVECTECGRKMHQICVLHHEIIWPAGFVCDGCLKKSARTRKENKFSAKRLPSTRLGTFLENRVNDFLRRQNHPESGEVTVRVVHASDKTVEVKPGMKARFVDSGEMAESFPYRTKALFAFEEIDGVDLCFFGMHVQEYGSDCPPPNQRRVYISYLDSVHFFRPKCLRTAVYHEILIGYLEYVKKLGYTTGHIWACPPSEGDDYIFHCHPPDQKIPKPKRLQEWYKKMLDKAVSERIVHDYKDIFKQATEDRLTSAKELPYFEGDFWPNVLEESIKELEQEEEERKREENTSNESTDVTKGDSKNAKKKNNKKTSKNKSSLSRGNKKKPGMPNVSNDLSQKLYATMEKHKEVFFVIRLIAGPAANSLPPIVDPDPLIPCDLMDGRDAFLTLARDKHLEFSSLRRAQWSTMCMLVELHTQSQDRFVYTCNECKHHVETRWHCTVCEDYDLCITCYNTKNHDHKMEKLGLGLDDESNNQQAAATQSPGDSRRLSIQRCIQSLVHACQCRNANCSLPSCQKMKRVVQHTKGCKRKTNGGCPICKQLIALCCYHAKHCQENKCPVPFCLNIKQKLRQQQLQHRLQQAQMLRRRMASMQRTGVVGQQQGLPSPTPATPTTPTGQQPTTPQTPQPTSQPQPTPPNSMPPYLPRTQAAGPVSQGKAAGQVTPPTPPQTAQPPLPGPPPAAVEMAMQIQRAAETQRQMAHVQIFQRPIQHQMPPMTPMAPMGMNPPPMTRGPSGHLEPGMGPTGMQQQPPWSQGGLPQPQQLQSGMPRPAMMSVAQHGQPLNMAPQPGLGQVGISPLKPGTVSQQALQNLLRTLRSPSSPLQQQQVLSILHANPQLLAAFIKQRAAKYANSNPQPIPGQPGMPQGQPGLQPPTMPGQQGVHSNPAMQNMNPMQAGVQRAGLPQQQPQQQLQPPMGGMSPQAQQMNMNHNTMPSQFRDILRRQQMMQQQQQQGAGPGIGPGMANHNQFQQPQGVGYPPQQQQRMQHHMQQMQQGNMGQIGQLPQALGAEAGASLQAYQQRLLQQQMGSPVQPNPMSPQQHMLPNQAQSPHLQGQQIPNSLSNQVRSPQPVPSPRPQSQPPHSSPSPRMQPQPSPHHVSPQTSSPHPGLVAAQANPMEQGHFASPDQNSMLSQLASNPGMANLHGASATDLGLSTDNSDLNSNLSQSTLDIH
Assay: percentage of inhibition (degradation) of p300 at 10 nM, Tables 2-4
Type: cell-based
Parameters: LNCaP or 22RV1 cells that express CBP/P300 proteins were treated with GNE-781 or the bivalent compounds; endogenous in cells; host or cells: LNCaP or 22RV1 (not given)
Conditions: p300, 10 nM; Table 4; read-out: Degradation (10 nM)
Reported inhibition at 0.01 µM by item:

Example entries begin here.
CC(=O)N1CCc2c(c(N3CCCc4cc(-c5cnn(C)c5)c(C(F)F)cc43)nn2C2CCN(Cc3ccc(CNc4cccc5c4CN(C4CCC(=O)NC4=O)C5=O)nc3)CC2)C1 (centres unmarked) = > 80%
CC(=O)N1CCc2c(c(N3CCCc4cc(-c5cnn(C)c5)c(C(F)F)cc43)nn2C2CCN(C(=O)CNc3ccc(C(=O)NC4CCC(=O)NC4=O)c4ncccc34)CC2)C1 (centres unmarked) = > 80%
CC(=O)N1CCc2c(c(N3CCCc4cc(-c5cnn(C)c5)c(C(F)F)cc43)nn2C2CCN(Cc3ccc(CNc4cccc5c4CN(C4CCC(=O)NC4=O)C5=O)cc3)CC2)C1 (centres unmarked) = 50 to 80%
CC(=O)N1CCc2c(c(N3CCCc4cc(-c5cnn(C)c5)c(C(F)F)cc43)nn2C2CCN(C(=O)CCCN3CCN(Cc4ccc5c(c4)n(C)c(=O)n5C4CCC(=O)NC4=O)CC3)CC2)C1 (centres unmarked) = 20 to 50%

# context switch: different compound, same inhibition at 0.01 µM
# input So what does the record say about inhibition at 0.01 µM for CC(=O)N1CCc2c(c(N3CCCc4cc(-c5cnn(C)c5)c(C(F)F)cc43)nn2C2CCN(C(=O)CCN3CCC(C#Cc4cccc5c4n(C)c(=O)n5C4CCC(=O)NC4=O)CC3)CC2)C1 (centres unmarked) ?
# output > 80%

---

Target: P300 (Homo sapiens)
Test: percentage of inhibition (degradation) of p300 at 10 nM, Tables 2-4
Assay type: cell-based
Parameters: LNCaP or 22RV1 cells that express CBP/P300 proteins were treated with GNE-781 or the bivalent compounds; endogenous in cells; host or cells: LNCaP or 22RV1 (not given)
Details: p300, 10 nM; Table 4; read-out: Degradation (10 nM)
Reported inhibition at 0.01 µM by item:

Example entries begin here.
CC(=O)N1CCc2c(c(N3CCCc4cc(-c5cnn(C)c5)c(C(F)F)cc43)nn2C2CCN(C(=O)CCN3CCN(Cc4ccc5c(c4)n(C)c(=O)n5C4CCC(=O)NC4=O)CC3)CC2)C1 (centres unmarked) [P-216] = 20 to 50%
CC(=O)N1CCc2c(c(N3CCCc4cc(-c5cnn(C)c5)c(C(F)F)cc43)nn2C2CCN(C(=O)CCN3CCN(CC#Cc4cccc5c4n(C)c(=O)n5C4CCC(=O)NC4=O)CC3)CC2)C1 (centres unmarked) [P-238] = 20 to 50%
CC(=O)N1CCc2c(c(N3CCCc4cc(-c5cnn(C)c5)c(C(F)F)cc43)nn2C2CCN(CCN3CCN(c4cccc5c4C(=O)N(C4CCC(=O)NC4=O)C5=O)CC3)CC2)C1 (centres unmarked) [P-191] = < 20%
CC(=O)N1CCc2c(c(N3CCCc4cc(-c5cnn(C)c5)c(C(F)F)cc43)nn2C2CCN(CCCCC3CN(c4cccc5c4C(=O)N(C4CCC(=O)NC4=O)C5=O)C3)CC2)C1 (centres unmarked) [P-201] = > 80%

# context switch: different compound, same inhibition at 0.01 µM
# input So what does the record say about inhibition at 0.01 µM for CC(=O)N1CCc2c(c(N3CCCc4cc(-c5cnn(C)c5)c(C(F)F)cc43)nn2C2CCN(C(=O)CCCN3CCC(C#Cc4ccc5c(c4)n(C)c(=O)n5C4CCC(=O)NC4=O)CC3)CC2)C1 (centres unmarked) [P-211] ?
# output > 80%

---

Target: P300 (Homo sapiens)
Assay: percentage of inhibition (degradation) of p300 at 10 nM, Tables 2-4
Type: cell-based
Set-up: LNCaP or 22RV1 cells that express CBP/P300 proteins were treated with GNE-781 or the bivalent compounds; endogenous in cells; host or cells: LNCaP or 22RV1 (not given)
Details: p300, 10 nM; Table 4; read-out: Degradation (10 nM)
Reported inhibition at 0.01 µM by item:

Example entries begin here.
CC(=O)N1CCc2c(c(N3CCCc4cc(-c5cnn(C)c5)c(C(F)F)cc43)nn2C2CCN(Cc3ccc(COc4cccc5c4C(=O)N(C4CCC(=O)NC4=O)C5)cc3)CC2)C1 (stereo not drawn) = > 80%
CC(=O)N1CCc2c(c(N3CCCc4cc(-c5cnn(C)c5)c(C(F)F)cc43)nn2C2CCN(C(=O)CN3CCC(C#Cc4cccc5c4n(C)c(=O)n5C4CCC(=O)NC4=O)CC3)CC2)C1 (stereo not drawn) = > 80%

# input So what does the record say about inhibition at 0.01 µM for CC(=O)N1CCc2c(c(N3CCCc4cc(-c5cnn(C)c5)c(C(F)F)cc43)nn2C2CCN(C(=O)CCN3CCC(CNc4ccc5c(c4)n(C)c(=O)n5C4CCC(=O)NC4=O)CC3)CC2)C1 (stereo not drawn) ?
# output > 80%

---

Molecular target: P300 (Homo sapiens)
Test: percentage of inhibition (degradation) of p300 at 10 nM, Tables 2-4
Assay type: cell-based
Parameters: LNCaP or 22RV1 cells that express CBP/P300 proteins were treated with GNE-781 or the bivalent compounds; endogenous in cells; host or cells: LNCaP or 22RV1 (not given)
Conditions: p300, 10 nM; Table 4; read-out: Degradation (10 nM)
Reported inhibition at 0.01 µM by item:

CC(=O)N1CCc2c(c(N3CCCc4cc(-c5cnn(C)c5)c(C(F)F)cc43)nn2C2CCN(C(=O)CN3CCN(CCCc4cccc5c4n(C)c(=O)n5C4CCC(=O)NC4=O)CC3)CC2)C1 (stereo not shown) [P-237] = 20 to 50%
CC(=O)N1CCc2c(c(N3CCCc4cc(-c5cnn(C)c5)c(C(F)F)cc43)nn2C2CCN(C(=O)CCCN3CCN(CC#Cc4cccc5c4n(C)c(=O)n5C4CCC(=O)NC4=O)CC3)CC2)C1 (stereo not shown) [P-224] = > 80%
CC(=O)N1CCc2c(c(N3CCCc4cc(-c5cnn(C)c5)c(C(F)F)cc43)nn2C2CCN(CCCN3CCC(C#Cc4ccc5c(c4)n(C)c(=O)n5C4CCC(=O)NC4=O)CC3)CC2)C1 (stereo not shown) [P-243] = > 80%
CC(=O)N1CCc2c(c(N3CCCc4cc(-c5cnn(C)c5)c(C(F)F)cc43)nn2C2CCN(C(=O)CCN3CCC(CCc4cccc5c4n(C)c(=O)n5C4CCC(=O)NC4=O)CC3)CC2)C1 (stereo not shown) [P-232] = > 80%
CC(=O)N1CCc2c(c(N3CCCc4cc(-c5cnn(C)c5)c(C(F)F)cc43)nn2C2CCN(CCCN3CCC(CNc4cccc5c4C(=O)N(C4CCC(=O)NC4=O)C5=O)CC3)CC2)C1 (stereo not shown) [P-193] = > 80%
CC(=O)N1CCc2c(c(N3CCCc4cc(-c5cnn(C)c5)c(C(F)F)cc43)nn2C2CCN(C(=O)CCCN3CCC(CCc4cccc5c4n(C)c(=O)n5C4CCC(=O)NC4=O)CC3)CC2)C1 (stereo not shown) [P-230] = > 80%

# context switch: different compound, same inhibition at 0.01 µM
# input So what does the record say about inhibition at 0.01 µM for CC(=O)N1CCc2c(c(N3CCCc4cc(-c5cnn(C)c5)c(C(F)F)cc43)nn2C2CCN(C(=O)CCN3CCC(C#Cc4ccc5c(c4)n(C)c(=O)n5C4CCC(=O)NC4=O)CC3)CC2)C1 (stereo not shown) [P-212] ?
# output > 80%

---

Target: P300 (Homo sapiens, UniProt Q09472)
Test: percentage of inhibition (degradation) of p300 at 10 nM, Tables 2-4
Assay type: cell-based
Design: LNCaP or 22RV1 cells that express CBP/P300 proteins were treated with GNE-781 or the bivalent compounds; endogenous in cells; host or cells: LNCaP or 22RV1 (not given)
Conditions: p300, 10 nM; Table 4; read-out: Degradation (10 nM)
Reported inhibition at 0.01 µM by item:

Example entries begin here.
CC(=O)N1CCc2c(c(N3CCCc4cc(-c5cnn(C)c5)c(C(F)F)cc43)nn2C2CCN(CCCN3CCC(CCc4ccc5c(c4)n(C)c(=O)n5C4CCC(=O)NC4=O)CC3)CC2)C1 (centres unmarked) [P-244] = > 80%
CC(=O)N1CCc2c(c(N3CCCc4cc(-c5cnn(C)c5)c(C(F)F)cc43)nn2C2CCN(C(=O)CCCCCCNc3ccc(C(=O)NC4CCC(=O)NC4=O)c4ncccc34)CC2)C1 (centres unmarked) [P-240] = > 80%
CC(=O)N1CCc2c(c(N3CCCc4cc(-c5cnn(C)c5)c(C(F)F)cc43)nn2C2CCN(C(=O)CCCCCCCCC(=O)Nc3cccc(NC4CCC(=O)NC4=O)c3)CC2)C1 (centres unmarked) [P-264] = < 20%
CC(=O)N1CCc2c(c(N3CCCc4cc(-c5cnn(C)c5)c(C(F)F)cc43)nn2C2CCN(C(=O)CN3CCN(CCCc4ccc5c(c4)n(C)c(=O)n5C4CCC(=O)NC4=O)CC3)CC2)C1 (centres unmarked) [P-220] = 50 to 80%

# context switch: different molecule, same inhibition at 0.01 µM
# input So what does the record say about inhibition at 0.01 µM for CC(=O)N1CCc2c(c(N3CCCc4cc(-c5cnn(C)c5)c(C(F)F)cc43)nn2C2CCN(C(=O)CCN3CCN(CCCc4cccc5c4n(C)c(=O)n5C4CCC(=O)NC4=O)CC3)CC2)C1 (centres unmarked) [P-239] ?
# output < 20%
